For each record, write down the corresponding growth.
Tested on: IGROV1 ovarian
PROTOCOL TEXT: NCI-60 one-dose screen, 48 h (100 = growth as untreated, 0 = no growth, -100 = all killed)
CONDITION SUMMARY: 10 µM unless noted
Compounds without any hit were thinned out: in the full panel of roughly 83,000, 20% have a hit.
Provide the reading as a plain figure in %.

Entry under test: COc1ccc(Cl)cc1NC(=O)c1cc2c(n1C)-c1nc(NC(=O)C(C)C)sc1CC2 . Its growth was 104

Entry under test: COc1ccc(-c2coc3c(CO)c(O)ccc3c2=O)cc1 . Its growth was 61.2

Entry under test: CN(C)CC/C=C1\c2ccccc2Sc2ccc(Cl)cc21 . Its growth was 53.8

Entry under test: C=C1C(=O)O[C@H]2[C@H]1CC/C(CNC(=O)/C1=C/CC[C@@]3(C)O[C@H]3[C@H]3OC(=O)C(=C)[C@@H]3CC1)=C\CC[C@@]1(C)O[C@@H]21 . Its growth was 102

Entry under test: COc1ccccc1S(=O)(=O)Nc1ccc2c3c(cc(-c4ccoc4)nc13)C(=O)N2C . Its growth was 62

Entry under test: COc1ccccc1NC(=O)COc1ccc(/C=C2/Oc3cc4occc4c(OC)c3C2=O)cc1OC . Its growth was 122

Entry under test: O=C(Nc1ccc(F)cc1)Nc1ccc(Br)c(C(F)(F)F)c1 . Its growth was 25.7

Entry under test: O=C(O)c1ccc(-n2cc(/C=N/Nc3ccc(Cl)cc3)c(-c3ccc(F)c(F)c3)n2)cc1 . Its growth was 79.2

Entry under test: CCCCCCCCCCCCCCCC(=O)NS(=O)(=O)OC[C@H]1O[C@@H](n2cnc3c(N)ncnc32)[C@H](O)[C@@H]1O . Its growth was -52.2

Entry under test: COc1cc(C(=O)NNC(=O)c2ccccc2C(=O)O)cc(OC)c1OC . Its growth was 50.2

Entry under test: Nc1ncnc2c1ccn2-c1cccc(NC(=O)c2cccc(C(F)(F)F)c2)c1 . Its growth was 87.5

---

Tested on: HS 578T breast
PROTOCOL TEXT: NCI-60 one-dose screen, 48 h (100 = growth as untreated, 0 = no growth, -100 = all killed)
CONDITION SUMMARY: 10 µM unless noted
Compounds without any hit were thinned out: in the full panel of roughly 83,000, 20% have a hit. Calls of active or inactive are those of the source. Rule for the calls: active = growth percent below 10; inactive = the rest.
OBSERVABLE: growth

Entry under test: CCCc1nn2c(CCC(=O)c3nc4ccc([N+](=O)[O-])cc4[nH]3)nnc2s1 . Its growth was 91.1% (inactive)

Entry under test: Clc1ccc(OCc2nc(-c3ccccc3)n[nH]2)c(Cl)c1 . Its growth was 88.6% (inactive)

Entry under test: Fc1cccc(F)c1C#Cc1ccc2cccnc2c1 . Its growth was 91.6% (inactive)

Entry under test: Nc1nc(Cl)c2c(C(F)(F)F)cn(CC3CCNCC3)c2n1 . Its growth was 88.7% (inactive)

Entry under test: COc1cc(Br)c(-c2nc(-c3ccccc3)c(-c3ccccc3)n2Cc2ccccc2)cc1OC . Its growth was 88.7% (inactive)

---

Tested on: A498 renal
PROTOCOL TEXT: NCI-60 one-dose screen, 48 h
CONDITION SUMMARY: 10 µM unless noted
The panel holds about 83,000 compounds, 20% with a hit somewhere; the sample as a whole holds those more often. The source made the active and inactive calls. The calls were made as follows: active = growth percent below 10; inactive = the rest.
Reply using exactly one outcome from active, inactive

Which outcome did this test record for the molecule NC(=NCCCOc1ccc(F)cc1)Nc1ccc(Cl)c(Cl)c1 ?
inactive

Which outcome did this test record for the molecule CCn1cc(C(=O)O)c(=O)c2cc(F)c(N3CCN(CC(=O)Nc4ccc(C(C)=O)cc4)CC3)cc21 ?
inactive

Which outcome did this test record for the molecule C=C1C(=O)O[C@H]2[C@H]1CC/C(COC(=O)c1cc(OC)c(OC)c(OC)c1)=C\CC[C@@]1(C)O[C@@H]21 ?
inactive

Which outcome did this test record for the molecule CCN(CC)C(=O)C1CCN(C(=O)c2ccccc2)CC1 ?
inactive

Which outcome did this test record for the molecule O=C(Nc1ccc(-n2cc(-c3ccncc3)c(-c3ccc(O)c(Cl)c3)n2)cc1)c1cc(C(F)(F)F)cc(C(F)(F)F)c1 ?
inactive

Which outcome did this test record for the molecule CC(C)CNCC(=O)Nc1ccc(Cc2ccc(NC(=O)CNCC(C)C)cc2)cc1 ?
inactive

Which outcome did this test record for the molecule C=C1C(=O)O[C@H]2[C@H]1CC/C(COC(=O)c1ccccc1)=C\CC[C@@]1(C)O[C@@H]21 ?
inactive

Which outcome did this test record for the molecule CC(=O)N[C@@H](CNC(=O)c1cc(NC(=O)c2cc(NC(=O)c3cc(NC(=O)c4nccn4C)cn3C)cn2C)cn1C)CC(=O)Nc1cn(C)c(C(=O)Nc2cc(C(=O)Nc3cc(C(=O)Nc4cc(C(=O)NCCCN(C)CCCNC(=O)c5cccc(C(=O)O)c5)n(C)c4)n(C)c3)n(C)c2)n1 ?
inactive

Which outcome did this test record for the molecule Cc1nssc1=S ?
inactive

Which outcome did this test record for the molecule C#C[C@@]1(O)[C@@H](CO)O[C@@H](n2cc(Br)c3c(Cl)ccnc32)[C@@H]1O ?
active

Which outcome did this test record for the molecule COc1ccc(-c2nn(-c3ccc(NC(=O)Nc4cc(C(F)(F)F)cc(C(F)(F)F)c4)cc3)cc2-c2ccncc2)cc1Cl ?
active

Which outcome did this test record for the molecule CN(C)CCNc1nc2ccccc2c2c(=O)c3ccccc3sc12 ?
active

Which outcome did this test record for the molecule CNC(=O)NN ?
inactive

Which outcome did this test record for the molecule Nc1nc(Cl)cc(NCCCCNc2cc(Cl)nc(N)n2)n1 ?
inactive

Which outcome did this test record for the molecule N#CC1=C(N)Oc2c(ccc3ccccc23)C1c1cc(=O)oc2ccc(Cl)cc12 (stereo not given) ?
inactive

Which outcome did this test record for the molecule COc1cc(Cn2cc3c(c2)-c2onc(CO)c2CC3)cc(OC)c1OC ?
inactive

Which outcome did this test record for the molecule OCc1cnccc1NC12CC3CC(CC(C3)C1)C2 ?
inactive

Which outcome did this test record for the molecule CC(C)CNCC(O)COc1ccc(C(C)(C)c2ccc(OCC(O)CNCC(C)C)cc2)cc1 (stereo not given) ?
inactive

Which outcome did this test record for the molecule COc1cc(C(=O)N2CCN(C(=O)c3cc(OC)c(OCc4ccccc4)cc3N)CC2)c(N)cc1OCc1ccccc1 ?
inactive

Which outcome did this test record for the molecule CC(Cl)(CCl)CS(=O)(=O)c1ccc(Cl)cc1 (stereo not given) ?
inactive

Which outcome did this test record for the molecule CCOc1cccc(Nc2nc(N)nc3[nH]c4ccc(O)cc4c23)c1 ?
inactive

Which outcome did this test record for the molecule C/C(=N/NC(=O)Cn1c2ccccc2c2ccncc21)c1cccs1 ?
inactive

Which outcome did this test record for the molecule O=c1c2ccccc2sc2c(NCCCNCCO)nc3ccccc3c12 ?
inactive

Which outcome did this test record for the molecule COc1ccc(Cl)cc1NC(=O)c1cc2c([nH]1)-c1nc(NC(=O)C(C)(C)C)sc1CC2 ?
inactive

Which outcome did this test record for the molecule Cn1c2ccccc2c2ssc(=S)c21 ?
inactive

Which outcome did this test record for the molecule COc1ccccc1NC(=O)COc1ccc(/C=C2/Oc3cc4occc4c(OC)c3C2=O)cc1OC ?
inactive

Which outcome did this test record for the molecule COc1ccc(C(=O)Cn2cnc3c(Nc4cc(C(=O)Nc5ccc(N6CCN(CCO)CC6)cc5)ccc4C)ncnc32)cc1 ?
inactive

Which outcome did this test record for the molecule CCOc1ccccc1C(=O)N1CCN(c2cc(Cl)cc(Cl)c2)CC1 ?
active

Which outcome did this test record for the molecule COc1ccc(-n2c(-c3ccc(NC(=O)CCCl)cc3)nnc2-c2cc(OC)c(OC)c(OC)c2)cc1 ?
inactive

Which outcome did this test record for the molecule COc1cc(NC(=O)C#Cc2ccccc2)c(OC)cc1Cl ?
inactive

---

System: SF-295 CNS
PROTOCOL TEXT: NCI-60 one-dose screen, 48 h
CONDITION SUMMARY: 10 µM unless noted
This is part of a sample that, as a whole, favours compounds with a hit. Of some 83,000 tested, about 20% had one in any assay. Calls of active or inactive are those of the source. The calls were made as follows: active = growth percent below 10; inactive = the rest.
Reply using exactly one outcome from Yes for active, No for inactive

Which outcome did this test record for the molecule CN1CCN(Cn2nc(-c3cc(Cl)cc(Cl)c3Cl)n(/N=C/c3ccc(Cl)cc3)c2=S)CC1 ?
No

Which outcome did this test record for the molecule CCCCn1c(-c2cccc(OC)c2)nc2cc(OC)c(OC)cc2c1=O ?
No

Which outcome did this test record for the molecule COc1cc(NS(=O)(=O)c2ccc(N)cc2)ncn1 ?
No

Which outcome did this test record for the molecule CCCCOc1c(N)cc(Cl)cc1C(=O)OCCN(CC)CC ?
No

Which outcome did this test record for the molecule CC(CN(C)C)CN1c2ccccc2CCc2ccccc21 (configuration not stated) ?
No

Which outcome did this test record for the molecule Nc1ncnc2c1c(-c1ccc(Oc3ccccc3)cc1)nn2C[C@H]1SSC[C@H]1O ?
No

Which outcome did this test record for the molecule CCNC(=O)Oc1ccc(/C(=C(/CC)Cc2ccccc2)c2ccc(OCCN3CCOCC3)cc2)cc1 ?
No

Which outcome did this test record for the molecule O=c1cc(Cl)[nH]c(=O)[nH]1 ?
No

Which outcome did this test record for the molecule CC1(C)N=C(N)N=C(N)N1c1cccc(CCCCc2ccccc2)c1 ?
Yes

Which outcome did this test record for the molecule CCCC(=O)Oc1ccc(/C(=C(\C)c2ccc(Cl)cc2)c2ccc(OCCN(CC)CC)cc2)cc1 ?
Yes

Which outcome did this test record for the molecule Cc1c(NC(=O)c2sc3nc4c(cc3c2N)CN(Cc2ccccc2)CC4)cccc1C(F)(F)F ?
No

Which outcome did this test record for the molecule COc1cc2c(cc1OC)-c1c(oc3c4c(ccc3c1=O)OC(C)(C)C=C4)CO2 ?
No

Which outcome did this test record for the molecule C=C1C(=O)O[C@H]2[C@H]1CC/C(C(=O)NCCOCCOCC(=O)Nc1ccc(OC)c(C(N)=O)c1O)=C\CC[C@@]1(C)O[C@@H]21 ?
No

Which outcome did this test record for the molecule CCCOC(=O)c1ccc([N+](=O)[O-])o1 ?
No

Which outcome did this test record for the molecule CCN(CC)c1ccc(C2CC(c3cc(OC)c(OC)c(OC)c3)=NN2)cc1 (configuration not stated) ?
No

Which outcome did this test record for the molecule CN1CCN(CC(O)COc2c(Br)c(Br)c(Br)c3c2OC(C)(C)C3)CC1 (configuration not stated) ?
No

Which outcome did this test record for the molecule O=[N+]([O-])c1ccc(NS(=O)(=O)c2cc(Cl)ccc2Cl)c2ccccc12 ?
No
